Item-by-item account of IC50
Tested on: LIM2551
PROCEDURE_SUMMARY: Cell proliferation (cell count by microscopy) and HSA synergy, LIM2551
Type: cell-based
CONDITION_DETAILS: LIM2551 (BRAF, PIK3CA mutant); 72 h; 50% of cell counts relative to DMSO; tested A 13 nM-10 μM, B 1.4 nM-1 μM
METRIC: IC50 (nM)

# COMPOUND, EXPERIMENTAL_RESULT
records = [
    ("Cc1nc(NC(=O)N2CCC[C@H]2C(N)=O)sc1-c1ccnc(C(C)(C)C(F)(F)F)c1 [COMPOUND A]", 1400),
    ("CC(C)(C)c1nc(-c2cccc(NS(=O)(=O)c3c(F)cccc3F)c2F)c(-c2ccnc(N)n2)s1 [COMPOUND B]", 23),
]

---

Test system: COLO-205
PROCEDURE_SUMMARY: Cell proliferation (cell count by microscopy) and HSA synergy, COLO-205
Type: cell-based
CONDITION_DETAILS: Homo sapiens; COLO-205 (BRAF mutant); 72 h; 50% of cell counts relative to DMSO; tested A 13 nM-10 μM, B 1.4 nM-1 μM
pIC50: −log10 of the molar value.
Each entry below lists one item and its recorded pIC50 value.

# MOLECULE, LIMIT_QUALIFIER, pIC50
rows = [
    ("Cc1nc(NC(=O)N2CCC[C@H]2C(N)=O)sc1-c1ccnc(C(C)(C)C(F)(F)F)c1 [COMPOUND A]", "<", 5.00),
    ("CC(C)(C)c1nc(-c2cccc(NS(=O)(=O)c3c(F)cccc3F)c2F)c(-c2ccnc(N)n2)s1 [COMPOUND B]", "=", 8.00),
]

---

List of IC50 values.
Tested on: LS411N
PROCEDURE_SUMMARY: Cell proliferation (cell count by microscopy) and HSA synergy, LS411N
Assay type: cell-based
CONDITION_DETAILS: Homo sapiens, LS-411N; LS411N (BRAF mutant); 72 h; 50% of cell counts relative to DMSO; tested A 13 nM-10 μM, B 1.4 nM-1 μM
METRIC: IC50

# COMPOUND, TARGET_OF_ASSAY, METRIC, EXPERIMENTAL_RESULT
rows = [
    ("Cc1nc(NC(=O)N2CCC[C@H]2C(N)=O)sc1-c1ccnc(C(C)(C)C(F)(F)F)c1 [COMPOUND A]", "LS411N", "IC50", "> 10 µM"),
    ("CC(C)(C)c1nc(-c2cccc(NS(=O)(=O)c3c(F)cccc3F)c2F)c(-c2ccnc(N)n2)s1 [COMPOUND B]", "LS411N", "IC50", "> 1 µM"),
]
